All figures here come from the METLIN SMRT retention time set (Domingo-Almenara et al. 2019).

test: gradient 5% acetonitrile 3 min, to 50% in 2 min, to 85% in 15 min, held 3 min, 100 µL/min; conditions: column: Zorbax Extend-C18 2.1 x 50 mm; eluents: water / acetonitrile, 0.1% formic acid
quantity_measured: RP-LC retention time (s)
Could you give me the number in s? Just the number is fine.

Answered examples (3):
[
  {
    "compound": "Cc1ccc(NC(=O)C(C)C2CCN(C(=O)Nc3ccc(F)cc3)CC2)cc1Cl (centres undefined)",
    "unit_spec": "s",
    "RP-LC retention time": 974
  },
  {
    "compound": "CC(C)c1ccc2c(c1)-c1ccccc1S(=O)(=O)N2CC(=O)NCc1cccnc1",
    "unit_spec": "s",
    "RP-LC retention time": 711
  },
  {
    "compound": "COc1ccc(OC)c(CNC(=O)CCc2c(C)nn(-c3cc(N(C)C)ncn3)c2C)c1",
    "unit_spec": "s",
    "RP-LC retention time": 726
  }
]

Look up RP-LC retention time for this compound: `Cc1cc(-c2ccc(C(C)C)c(S(=O)(=O)N3CCN(c4ccccn4)CC3)c2)on1`
819

Now the compound `COc1ccc(CCc2nc3nccc(-c4cccnc4)n3n2)cc1`
720

How about `O=C(Nc1ccc2c(c1)OCO2)C1CCN(S(=O)(=O)c2cc(C(=O)N3CCCC3)cs2)CC1` ?
770

Cool, now `COC(=O)c1nnn(-c2nonc2N)c1CN1CCN(c2ccccn2)CC1`
578

Param item: `Cn1nc(-c2nnc(-c3ccccc3)o2)c2c1CCN(S(=O)(=O)c1ccc(Cl)s1)C2`
1010

Repeat for the following compound: `Cc1ccccc1-c1noc(-c2ccc(S(=O)(=O)N3CCCC3)o2)n1`
1070

---

assay: gradient 5% acetonitrile 3 min, to 50% in 2 min, to 85% in 15 min, held 3 min, 100 µL/min; conditions: column: Zorbax Extend-C18 2.1 x 50 mm; eluents: water / acetonitrile, 0.1% formic acid
Note to self: class labels come from recorded RP-LC retention time, ranges listed here: class 1 (below 700 s), class 2 (700 s to below 900 s), class 3 (900 s or more)

Answered cases to consult:
[
  {
    "compound": "N#Cc1cccc(S(=O)(=O)N2CCC(c3nnc(C(=O)Nc4ccc5c(c4)OCO5)s3)CC2)c1",
    "classification": "class 3"
  },
  {
    "compound": "O=C(CCSc1ccccc1)NCCn1cnc(-c2ccc(F)cc2)cc1=O",
    "classification": "class 2"
  },
  {
    "compound": "O=C(C1CCN(c2cnc3nccnc3c2)CC1)N1CCN(c2ccccn2)CC1",
    "classification": "class 1"
  },
  {
    "compound": "CCc1ccc(S(=O)(=O)N2C[C@@H](F)C[C@H]2C(=O)N2CCOCC2)cc1",
    "classification": "class 2"
  },
  {
    "compound": "Cc1ccn2c(NC(=O)c3ccc(Cl)c([N+](=O)[O-])c3)c(-c3ccc(F)cc3)nc2c1",
    "classification": "class 2"
  },
  {
    "compound": "Cc1c(Cl)cccc1NC(=O)c1cccc([N+](=O)[O-])c1O",
    "classification": "class 3"
  },
  {
    "compound": "OC1(c2ccccn2)CCOC2(CCN(Cc3cccc(Cl)c3)CC2)C1 (stereo not drawn)",
    "classification": "class 1"
  },
  {
    "compound": "Cn1c(=O)n(C)c2cc(S(=O)(=O)C3CCCCC3)c(NC(=O)C3CC3)cc21",
    "classification": "class 2"
  },
  {
    "compound": "O=C1C2CC=CCC2C(=O)N1c1ccc(N2CCN(c3ccccn3)CC2)c([N+](=O)[O-])c1 (stereo not drawn)",
    "classification": "class 1"
  },
  {
    "compound": "COc1ccc(-c2nc(-c3cn(-c4ccc(F)cc4)nn3)no2)cc1OC",
    "classification": "class 3"
  }
]

The entry to classify is COc1cccc(OCC(O)CN2CCN(Cc3ccccc3)CC2)c1 (stereo not drawn) ; which class holds it?
class 1

Also CCOc1cccc(CNC(=O)C2CCCN(c3ncnc4c3oc3ccccc34)C2)c1 (stereo not drawn) , if possible.
class 2

One more compound: `c1ccc(-c2nc3ccccc3s2)nc1`
class 3

Please give the result for `Cc1cc(=O)n(CC#N)c(N2CCCCC2)n1` too.
class 1

Quick one: `COc1ccc(-n2nnc(-c3nc(-c4ccccc4OC)cs3)c2N)cc1`
class 3

Try `O=C(CN1C(=O)COc2ccc(C(=O)N3CCc4ccccc43)cc21)N1CCCC1` next.
class 2

---

test: gradient 5% acetonitrile 3 min, to 50% in 2 min, to 85% in 15 min, held 3 min, 100 µL/min; settings: column: Zorbax Extend-C18 2.1 x 50 mm; eluents: water / acetonitrile, 0.1% formic acid
quantity_measured: RP-LC retention time (s)
Could you give me the number in s? Just the number is fine.

[
  {
    "molecule": "COc1ccc(-c2nc3ncccn3c2NCc2ccc(F)cc2)cc1OC",
    "unit_spec": "s",
    "RP-LC retention time": 692
  },
  {
    "molecule": "CC1=C(c2ccc(F)cc2)S(=O)(=O)N=C1N1CCCN(C(=O)c2cccc(C)c2)CC1",
    "unit_spec": "s",
    "RP-LC retention time": 859
  },
  {
    "molecule": "Cc1nc(Nc2ccc(F)cn2)sc1C(=O)NCc1ccc(F)cc1",
    "unit_spec": "s",
    "RP-LC retention time": 832
  },
  {
    "molecule": "CCCc1nc(NCc2cc(OC)ccc2OC)ncc1C(=O)O",
    "unit_spec": "s",
    "RP-LC retention time": 863
  },
  {
    "molecule": "CCc1nnc(-c2cccnc2N2CCN(C(=O)Nc3cc(Cl)cc(Cl)c3)CC2)o1",
    "unit_spec": "s",
    "RP-LC retention time": 968
  },
  {
    "molecule": "CC1Cc2ccccc2N1C(=O)C1CCN(S(=O)(=O)c2cn(C(C)C)cn2)CC1 (stereo not given)",
    "unit_spec": "s",
    "RP-LC retention time": 779
  },
  {
    "molecule": "CCCN(C(=O)c1cccc(OC)c1)c1nc(-c2ccccc2)cs1",
    "unit_spec": "s",
    "RP-LC retention time": 1350
  },
  {
    "molecule": "Cc1cccc(CN2CCCN(c3ncccc3-c3nc(C(C)C)no3)CC2)c1",
    "unit_spec": "s",
    "RP-LC retention time": 733
  },
  {
    "molecule": "CC1CCc2nc3ncn(CC(=O)NCCc4ccc(Cl)cc4)c(=O)c3cc2C1 (stereo not given)",
    "unit_spec": "s",
    "RP-LC retention time": 756
  },
  {
    "molecule": "CCN1c2cc(C(=O)NC3CCCCC3)ccc2C(=O)N2CCCCC21 (stereo not given)",
    "unit_spec": "s",
    "RP-LC retention time": 853
  }
]

Which RP-LC retention time reading was recorded for the molecule O=C(CCC1CCCC1)NC1CCN(c2ccc(=O)[nH]n2)C1 (stereo not given) ?
649

// next record `CS(=O)(=O)N1CCCc2ccc(NS(=O)(=O)CCN3C(=O)CCCC3=O)cc21`
622

// repeat for Cc1ccc(C)c(NC(=O)N2CCCC(C)(C(=O)NCc3ccccc3C)C2)c1 (stereo not given) and report
1020

And what about the molecule `CC(C)CN1CCN(Cc2nc(-c3ccc(N4CCSCC4)nc3)no2)CC1` ?
635

What do we get for `CCOC(=O)Cn1c(CN(C)Cc2ccccc2)nc2c1c(=O)n(C)c(=O)n2C` ?
643

---

test: gradient 5% acetonitrile 3 min, to 50% in 2 min, to 85% in 15 min, held 3 min, 100 µL/min; conditions: column: Zorbax Extend-C18 2.1 x 50 mm; eluents: water / acetonitrile, 0.1% formic acid
Each entry gets N if its RP-LC retention time stays under 900 s, and Y if its RP-LC retention time is 900 s or above.

As a guide, the following entries are already answered.
[
  {
    "compound": "O=C(NCCN1CCCCC1)C1CCCN(c2cnc3nccnc3c2)C1 (centres undefined)",
    "classification": "N"
  },
  {
    "compound": "CC(C)c1ccc(Nc2c(-c3ccc(N(C)C)cc3)nc3ncccn23)cc1",
    "classification": "N"
  },
  {
    "compound": "CO[C@@H]1COCC[C@@H]1N[C@@H]1CC[C@@](C(=O)N2CCc3ncc(C(F)(F)F)cc3C2)(C(C)C)C1",
    "classification": "N"
  },
  {
    "compound": "CCOc1ccc(N2CC(c3nc(-c4ccccc4Cl)no3)CC2=O)cc1 (centres undefined)",
    "classification": "Y"
  },
  {
    "compound": "O=C(NCC1CCN(C(=O)c2cc3ccccc3o2)CC1)C(=O)Nc1cccnc1",
    "classification": "N"
  },
  {
    "compound": "CCN1C(=O)COc2ccc(-c3csc(NC(=O)c4ccccc4F)n3)cc21",
    "classification": "Y"
  }
]

Now let's try a different one.
Please indicate if the recorded RP-LC retention time for `CCn1cc(S(=O)(=O)N2CC(N(Cc3cccnc3)CC(C)C)C2)cn1` meets or exceeds 900 s.
N
